Data origin, for the record: patent US10106539B2

assay: Liver microsomal stability, human; type: in vitro ADME; conditions: both sexes, pH 7.4; human liver microsomes, Comparative Example 2; read-out: Liver Microsomal Stability T1/2, human (Table 5)
readout: half-life at 3 μM (min)
# unit: min | format: bare number

Record summary for CC(C)CCn1c(CN2C(=O)C3(CC3)c3ccccc32)nc2cc(CN)ccc21 [RV039, reference compound] : reported half-life at 3 μM = 5

* * *

assay: In vivo pharmacokinetics in rats (IV and PO); set-up: species or system male Sprague Dawley rats; settings: male, Sprague Dawley, rat, plasma; rats, 1 mg/kg (IV) and 5 mg/kg (PO), Comparative Example 3; read-out: Bioavailability (Table 6)
readout: bioavailability (%)
# unit: % | format: bare number

Record summary for CC(C)CCn1c(CN2C(=O)C3(CC3)c3ccccc32)nc2cc(CN)ccc21 [RV039, reference compound] : reported bioavailability = 4.5
